# targetOrSystem: UniProt:P06935
# assayNotes: Inhibition of West Nile virus NS2B-NS3 protease expressed in Escherichia coli BL21 lambda (DE3) cells at 50 uM using Abz-Gly-Leu-Lys-Arg-Gly-Gly-3-(NO2)Tyr as substrate preincubated for 15 mins followed by substrate addition measured for 15 mins by fluorimetric analysis relative to control
measuredQuantity: inhibition (%)

CCCCCC(=O)N[C@H](C(=O)NCc1ccc(NC(=N)N)cc1)c1ccc(OCc2cccc(OC)c2)cc1.O=C(O)C(F)(F)F = 15.7
N=C(N)Nc1ccc(CNC(=O)[C@@H](NC(=O)CC2CCCCC2)c2ccc(OCc3ccccc3)cc2)cc1.O=C(O)C(F)(F)F = 99.5
CCCCCC(=O)N[C@H](C(=O)NCc1ccc(NC(=N)N)cc1)c1ccc(OCc2ccc(C#N)cc2)cc1.O=C(O)C(F)(F)F = 24.8

----------
# targetOrSystem: Genome polyprotein (dengue virus type 2)
# assayNotes: Inhibition of Dengue virus serotype 2 NS2B-NS3 protease transfected in human HeLa cells at 12.5 uM measured after 24 hrs by Renilla-luciferase reporter gene assay relative to control
# Type: cell-based
# inhibition per entry
measuredQuantity: inhibition (%)

N=C(N)Nc1ccc(CNC(=O)[C@@H](NC(=O)c2ccc(-c3ccccc3)cc2)c2ccc(OCc3ccccc3)cc2)cc1.O=C(O)C(F)(F)F = 67
N=C(N)Nc1ccc(CNC(=O)[C@@H](NC(=O)c2ccc(OCc3ccccc3)cc2)c2ccc(OCc3ccccc3)cc2)cc1.O=C(O)C(F)(F)F = 69.8
CCCCCC(=O)N[C@H](C(=O)NCc1ccc(NC(=N)N)nc1)c1ccc(OCc2ccccc2)cc1.O=C(O)C(F)(F)F = 67.7
CCCCCC(=O)N[C@@H](C(=O)NCc1ccc(NC(=N)N)cc1)c1ccc(OCc2ccccc2)cc1.O=C(O)C(F)(F)F = 54.9

----------
# targetOrSystem: Genome polyprotein (West Nile virus, UniProt P06935)
# Sequence (P06935 1371-1501 limits assumed): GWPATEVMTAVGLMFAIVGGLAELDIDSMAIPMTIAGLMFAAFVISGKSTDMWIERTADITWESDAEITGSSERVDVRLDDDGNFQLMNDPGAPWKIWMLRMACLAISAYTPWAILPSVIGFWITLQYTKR
# Sequence (P06935 1502-2120 limits assumed): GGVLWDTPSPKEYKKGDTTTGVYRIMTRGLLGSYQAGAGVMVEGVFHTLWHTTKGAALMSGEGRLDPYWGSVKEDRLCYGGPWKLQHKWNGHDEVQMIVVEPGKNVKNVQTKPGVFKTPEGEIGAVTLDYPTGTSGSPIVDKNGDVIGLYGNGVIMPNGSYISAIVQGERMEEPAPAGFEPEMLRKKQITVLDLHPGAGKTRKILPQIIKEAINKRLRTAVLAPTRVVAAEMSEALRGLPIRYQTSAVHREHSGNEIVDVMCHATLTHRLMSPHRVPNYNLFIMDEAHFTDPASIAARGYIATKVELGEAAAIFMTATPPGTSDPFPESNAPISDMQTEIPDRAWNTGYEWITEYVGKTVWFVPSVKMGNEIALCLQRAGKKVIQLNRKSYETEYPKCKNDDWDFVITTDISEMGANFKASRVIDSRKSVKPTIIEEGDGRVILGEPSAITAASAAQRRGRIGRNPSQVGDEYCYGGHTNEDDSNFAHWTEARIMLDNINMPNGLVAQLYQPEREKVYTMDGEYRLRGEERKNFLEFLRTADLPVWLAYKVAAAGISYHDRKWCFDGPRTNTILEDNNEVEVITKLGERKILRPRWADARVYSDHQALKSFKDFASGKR
measuredQuantity: Ki (µM)

N=C(N)Nc1ccc(CNC(=O)[C@@H](NC(=O)Cc2ccc(-c3ccccc3)cc2)c2ccc(OCc3c(Cl)cccc3Cl)cc2)cc1.O=C(O)C(F)(F)F = 1

----------
# targetOrSystem: UniProt P06935
# assayNotes: Inhibition of West Nile virus NS2B-NS3 protease expressed in Escherichia coli BL21 lambda (DE3) cells at 50 uM using Abz-Gly-Leu-Lys-Arg-Gly-Gly-3-(NO2)Tyr as substrate preincubated for 15 mins followed by substrate addition measured for 15 mins by fluorimetric analysis relative to control
measuredQuantity: inhibition (%)

N=C(N)Nc1ccc(CNC(=O)[C@@H](NC(=O)c2ccc(Oc3ccccc3)cc2)c2ccc(OCc3ccccc3)cc2)cc1.O=C(O)C(F)(F)F = 101
CCCCCCCC(=O)N[C@H](C(=O)NCc1ccc(NC(=N)N)cc1)c1ccc(OCc2ccccc2)cc1.O=C(O)C(F)(F)F = 104
N=C(N)Nc1ccc(CNC(=O)[C@@H](NC(=O)c2cccc(Oc3ccccc3)c2)c2ccc(OCc3ccccc3)cc2)cc1.O=C(O)C(F)(F)F = 99.8
CCCCCC(=O)N[C@@H](C(=O)NCc1ccc(CN)cc1)c1ccc(OCc2ccc(Cl)c(Cl)c2)cc1.O=C(O)C(F)(F)F = 100
CCCCCC(=O)N[C@H](C(=O)NCc1ccc(C(=N)N)cc1)c1ccc(OCc2ccccc2)cc1.O=C(O)C(F)(F)F = 39.4
COc1cccc(COc2ccc(C(=O)N[C@H](C(=O)NCc3ccc(NC(=N)N)cc3)c3ccc(OCc4ccccc4)cc3)cc2)c1.O=C(O)C(F)(F)F = 102

----------
# targetOrSystem: UniProt:P06935
# assayNotes: Inhibition of West Nile virus NS2B-NS3 protease expressed in Escherichia coli BL21 lambda (DE3) cells at 50 uM using Abz-Gly-Leu-Lys-Arg-Gly-Gly-3-(NO2)Tyr as substrate preincubated for 15 mins followed by substrate addition measured for 15 mins by fluorimetric analysis relative to control
// reported inhibition per item
measuredQuantity: inhibition

CCCCCC(=O)N[C@H](C(=O)NCc1ccncc1)c1ccc(OCc2ccccc2)cc1 = < 10%
CCCCCC(=O)N[C@H](C(=O)Nc1ccc(NC(=N)N)cc1)c1ccc(OCc2ccccc2)cc1.O=C(O)C(F)(F)F = 53.8%
CCCCCC(=O)N[C@@H](C(=O)NCc1ccc(NC(=N)N)cc1)c1ccc(OCc2ccc(C(F)(F)F)cc2)cc1.O=C(O)C(F)(F)F = 102%
CCCCCC(=O)N[C@H](C(=O)Nc1ccc2[nH]ncc2c1)c1ccc(OCc2ccccc2)cc1 = 26%
CCCCCC(=O)N[C@@H](C(=O)NCc1ccc(NC(=N)N)cc1)c1ccc(OCc2ccccc2)cc1.O=C(O)C(F)(F)F = 34.2%
CCCCCC(=O)N[C@H](C(=O)NCc1ccc(NC(=N)N)cc1)c1ccc(OCc2c(Cl)cccc2Cl)cc1.O=C(O)C(F)(F)F = 101%
N=C(N)Nc1ccc(CNC(=O)[C@@H](NC(=O)Cc2ccc(-c3ccccc3)cc2)c2ccc(OCc3ccccc3)cc2)cc1.O=C(O)C(F)(F)F = 99.3%

----------
As shown below, each of these molecules has a reported pEC50 value.
# targetOrSystem: UniProt:P29990
# assayNotes: Inhibition of Dengue virus serotype 2 NS2B-NS3 protease transfected in human HeLa cells measured after 24 hrs by Renilla-luciferase reporter gene assay
pEC50: −log10 of the molar value.
measuredQuantity: pEC50

N=C(N)Nc1ccc(CNC(=O)[C@@H](NC(=O)c2ccc(-c3ccc(Cl)cc3)cc2)c2ccc(OCc3ccccc3)cc2)cc1.O=C(O)C(F)(F)F = 5.15
CCCCC(=O)N[C@H](C(=O)NCc1ccc(NC(=N)N)cc1)c1ccc(OCc2ccccc2)cc1.O=C(O)C(F)(F)F = 5.55
CCCCCCCCCC(=O)N[C@H](C(=O)NCc1ccc(NC(=N)N)cc1)c1ccc(OCc2ccccc2)cc1.O=C(O)C(F)(F)F = 5.64
N=C(N)Nc1ccc(CNC(=O)[C@@H](NC(=O)c2cccc(Oc3ccccc3)c2)c2ccc(OCc3ccccc3)cc2)cc1.O=C(O)C(F)(F)F = 5.14
N=C(N)NCCC[C@H](NC(=O)c1ccccc1)C(=O)N[C@@H](CCCCN)C(=O)N[C@@H](C(N)=O)c1ccc(OCc2ccccc2)cc1 = 4.80

----------
Measured CC50 at 24 h of individual entries
# assayNotes: Cytotoxicity against human HeLa cells assessed as reduction in cell viability measured after 24 hrs by celltiter-blue assay
# Type: cell-based
measuredQuantity: CC50 at 24 h

CCCCCC(=O)N[C@H](C(=O)NCc1ccc(CN(C)C)cc1)c1ccc(OCc2ccccc2)cc1 = > 12.5 µM
N=C(N)NCc1ccc(CNC(=O)[C@H](NC(=O)c2ccc(Oc3ccccc3)cc2)c2ccc(OCc3ccc(Cl)c(Cl)c3)cc2)cc1.O=C(O)C(F)(F)F = > 50 µM
CCCCCC(=O)N[C@H](C(=O)NCc1ccc(NC(=N)N)cc1)c1ccc(OCc2c(Cl)cccc2Cl)cc1.O=C(O)C(F)(F)F = > 50 µM
CCCCCC(=O)N[C@H](C(=O)NCc1ccc(CNC(=N)N)cc1)c1ccc(OCc2ccccc2)cc1.O=C(O)C(F)(F)F = > 50 µM
CCCCCC(=O)N[C@H](C(=O)NCc1ccc(CN)cc1)c1ccc(OCc2ccccc2)cc1.O=C(O)C(F)(F)F = 4.8 µM

----------
Each entry below carries its reported inhibition.
# targetOrSystem: Genome polyprotein (dengue virus type 2)
# assayNotes: Inhibition of Dengue virus serotype 2 NS2B-NS3 protease expressed in Escherichia coli BL21 lambda (DE3) cells at 50 uM using Abz-Nle-Lys-Arg-Arg-Ser-3-(NO2)Tyr as substrate preincubated for 15 mins followed by substrate addition and measured for 15 mins by FRET assay relative to control
measuredQuantity: inhibition (%)

CCCCCC(=O)N[C@H](C(=O)NCc1ccc(NC(=N)N)cc1)c1ccc(OCc2ccc(C#N)cc2)cc1.O=C(O)C(F)(F)F = 74.3
CCCCCC(=O)N[C@H](C(=O)NCc1ccc(NC(=O)CN)cc1)c1ccc(OCc2ccccc2)cc1 = 28.2
CCCCCC(=O)N[C@H](C(=O)NCc1ccc(N)cc1)c1ccc(OCc2ccccc2)cc1.O=C(O)C(F)(F)F = 13
CCCCCC(=O)N[C@H](C(=O)NCc1ccc(NC(=N)N)cc1)c1ccc(OCc2ccccc2)cc1.O=C(O)C(F)(F)F = 95.1
N=C(N)NCc1ccc(CNC(=O)[C@H](NC(=O)c2ccc(Oc3ccccc3)cc2)c2ccc(OCc3ccc(Cl)c(Cl)c3)cc2)cc1.O=C(O)C(F)(F)F = 99.8
CCCCCC(=O)N[C@H](C(=O)NCc1cccc(CN)c1)c1ccc(OCc2ccccc2)cc1 = 97.2
CCCCCC(=O)N[C@H](C(=O)NCc1ccc(C(=N)N)cc1)c1ccc(OCc2ccccc2)cc1.O=C(O)C(F)(F)F = 20.6

----------
# targetOrSystem: Genome polyprotein (West Nile virus)
# assayNotes: Inhibition of West Nile virus NS2B-NS3 protease expressed in Escherichia coli BL21 lambda (DE3) cells at 50 uM using Abz-Gly-Leu-Lys-Arg-Gly-Gly-3-(NO2)Tyr as substrate preincubated for 15 mins followed by substrate addition measured for 15 mins by fluorimetric analysis relative to control
Where inhibition equals or exceeds 90%, the correct label is condition met; where it does not, the label is condition not met.

CCCCCC(=O)N[C@H](C(=O)NCc1ccc(NC(=O)CN)cc1)c1ccc(OCc2ccccc2)cc1 = condition not met
CCCCCC(=O)N[C@H](C(=O)NCCCCCCN)c1ccc(OCc2ccccc2)cc1 = condition not met
CC(=O)N[C@H](C(=O)NCc1ccc(NC(=N)N)cc1)c1ccc(OCc2ccccc2)cc1.O=C(O)C(F)(F)F = condition not met
CCCCCC(=O)N[C@H](C(=O)NCc1cccc(CN)c1)c1ccc(OCc2ccccc2)cc1 = condition not met
CCCCCC(=O)N[C@H](C(=O)NCc1ccccc1)c1ccc(OCc2ccccc2)cc1 = condition not met
CCCCCC(=O)N[C@H](C(=O)NCc1ccc(C(=O)NN)cc1)c1ccc(OCc2ccccc2)cc1 = condition not met
N=C(N)NCCC[C@H](NC(=O)c1ccccc1)C(=O)N[C@@H](CCCCN)C(=O)N[C@@H](C(N)=O)c1ccc(OCc2ccccc2)cc1 = condition not met
CCCCCCC(=O)N[C@H](C(=O)NCc1ccc(NC(=N)N)cc1)c1ccc(OCc2ccccc2)cc1.O=C(O)C(F)(F)F = condition met
N=C(N)Nc1ccc(CNC(=O)[C@@H](NC(=O)c2ccc(-c3ccccc3)cc2)c2ccc(OCc3ccccc3)cc2)cc1.O=C(O)C(F)(F)F = condition met
N=C(N)Nc1ccc(CNC(=O)[C@@H](NC(=O)c2ccc(OCc3ccc(Cl)cc3)cc2)c2ccc(OCc3ccccc3)cc2)cc1.O=C(O)C(F)(F)F = condition met
N=C(N)Nc1ccc(CNC(=O)[C@@H](NC(=O)c2ccccc2)c2ccc(OCc3ccccc3)cc2)cc1.O=C(O)C(F)(F)F = condition not met
